- EXPERIMENTAL SYSTEM: DNA-PK (Homo sapiens (Human))
- ASSAY PROCEDURE: DNA-PK assay (biochemical), flashplate 33P-ATP kinase assay
- ASSAY CONDITIONS: Table 5
- Experimental: A) DNA-PK Assay (Biochemical) The kinase assay was carried out in streptavidin-coated […] microtitre flashplates. […] The reaction was stopped using 50 μl/well of 200 mM EDTA. After incubation for a further 30 min at room temperature, the liquid was removed. […] A nonspecific reaction (blank value) was determined using 10 μM of an innate kinase inhibitor. The radioactivity measurement was carried out using a TopCount. IC50 values were calculated in RS1.
MEASURED ENDPOINT: IC50

Query block: What value of IC50 has been reported for the following compound? CCn1cc(C(O)c2cc(-c3ncnc4cc(N5CCOCC5)ccc34)c(F)cc2Cl)cn1 (centres unmarked)
Result block: 7 to 30 nM

Query block: // query IC50 value for entry OC(c1cccc(-c2ncnc3cc(N4CCOCC4)ccc23)c1)c1nccs1 (centres unmarked) [Example 149]
Result block: > 30 nM

Query block: Data request, read-out IC50, for CC(O)(c1nccs1)c1cccc(-c2ncnc3cc(N4CCOCC4)ccc23)c1F (centres unmarked)
Result block: > 30 nM

Query block: Return reported IC50; argument: CC(O)c1csc(C(O)c2cc(-c3ncnc4cc(N5CCOCC5)ccc34)c(F)cc2Cl)n1 (centres unmarked)
Result block: 3 to 7 nM

Query block: // query IC50 value for entry OC(c1cnc(F)c(-c2ncnc3cc(N4CCOCC4)ccc23)c1)c1nccs1 (centres unmarked) [Example 189]
Result block: 3 to 7 nM

Query block: What IC50 value was documented for this compound, CC(C)n1cc(C(O)c2ccc(F)c(-c3ncnc4cc(N5CCOCC5)ccc34)c2)cn1 (centres unmarked) ?
Result block: 3 to 7 nM

Query block: Consider the compound COC(c1ccc(F)c(-c2ncnc3cc(N4CCOCC4)ccc23)c1)c1nccs1 (centres unmarked) [Example 177] and give its measured IC50.
Result block: 3 to 7 nM

Query block: Entry OC(c1cc(F)c(F)c(-c2ncnc3cc(N4CCOCC4)ccc23)c1)c1nccs1 (centres unmarked) [Example 178] has what IC50?
Result block: < 3 nM

Query block: Form field: reported IC50 of OC(c1ccc(F)c(-c2ncnc3cc(C4=CCOCC4)ccc23)c1)c1nccs1 (centres unmarked)
Result block: 7 to 30 nM

Query block: What IC50 value was documented for this compound, CC(O)(c1cncc(-c2ncnc3cc(N4CCOCC4)ccc23)c1)c1nccs1 (centres unmarked) [Example 152] ?
Result block: 7 to 30 nM

Query block: Consider the compound shown here: Cc1nc(C(O)c2cc(-c3ncnc4cc(N5CCOCC5)ncc34)cnc2F)sc1C (centres unmarked) What is its recorded IC50?
Result block: > 30 nM

###

This section presents molecules with their documented pIC50 values.
- EXPERIMENTAL SYSTEM: DNA-PK phosphorylation at serine 2056 (Homo sapiens (Human), UniProt P78527)
- ASSAY PROCEDURE: DNA-PK phosphorylation at serine 2056 (cellular), bleomycin-treated HCT116 cells, ELISA
- Type: cell-based
- ASSAY CONDITIONS: cellular DNA-PK phosphorylation at serine 2056, HCT116; read-out: IC50 pDNA-PK
pIC50: −log10 of the molar value.

[
  {
    "MOLECULE": "OC(c1cc(-c2ncnc3cc(N4CCOCC4)ccc23)c(F)cc1F)c1nccnc1OC(F)F (centres unmarked) [Example 449]",
    "MEASURED ENDPOINT": "pIC50",
    "REPORTED": "5.30 to 6.30"
  },
  {
    "MOLECULE": "OC(c1cc(-c2ncnc3cc(N4CCOCC4)ccc23)c(F)cc1F)c1ncnc2ccoc12 (centres unmarked) [Example 444]",
    "MEASURED ENDPOINT": "pIC50",
    "REPORTED": "5.30 to 6.30"
  },
  {
    "MOLECULE": "OC(c1cc(-c2ncnc3cc(N4CCOCC4)ccc23)ccc1Cl)c1ncncc1F (centres unmarked) [Example 389]",
    "MEASURED ENDPOINT": "pIC50",
    "REPORTED": "5.00 to 5.30"
  },
  {
    "MOLECULE": "COc1nccnc1[C@@H](O)c1cc(-c2ncnc3cc(N4CCOCC4)ccc23)c(F)cc1Cl [Example 456]",
    "MEASURED ENDPOINT": "pIC50",
    "REPORTED": "> 6.30"
  },
  {
    "MOLECULE": "OC(c1ccc(F)c(-c2ncnc3cc(N4CCOCC4)ccc23)c1)c1ncnc2ccoc12 (centres unmarked) [Example 443]",
    "MEASURED ENDPOINT": "pIC50",
    "REPORTED": "5.30 to 6.30"
  },
  {
    "MOLECULE": "OC(c1ccc(F)c(-c2ncnc3cc(N4CCOCC4)ccc23)c1)c1nccnc1OC(F)F (centres unmarked) [Example 464]",
    "MEASURED ENDPOINT": "pIC50",
    "REPORTED": "5.30 to 6.30"
  }
]

Query block: Please report the recorded pIC50 for Cn1ncc2c(C(O)c3cc(-c4ncnc5cc(N6CCOCC6)ccc45)ccc3Cl)ncnc21 (centres unmarked) [Example 385] .
Result block: 5.30 to 6.30

Query block: Returns the measured pIC50 for the input molecule. Input: OC(c1cc(-c2ncnc3cc(N4CCOCC4)ccc23)c(F)cc1Cl)c1ncnc2ccoc12 (centres unmarked) [Example 440]
Result block: > 6.30

###

- EXPERIMENTAL SYSTEM: DNA-PK phosphorylation at serine 2056 (Homo sapiens (Human))
- ASSAY PROCEDURE: DNA-PK phosphorylation at serine 2056 (cellular), bleomycin-treated HCT116 cells, ELISA
- Type: cell-based
- ASSAY CONDITIONS: cellular DNA-PK phosphorylation at serine 2056, HCT116; read-out: IC50 pDNA-PK
pIC50: −log10 of the molar value.
MEASURED ENDPOINT: pIC50

Below, each entry is followed by its recorded pIC50 result.
[
  {
    "COMPOUND": "CN1CCN(c2nccnc2C(O)c2ccc(F)c(-c3ncnc4cc(N5CCOCC5)ccc34)c2)C1=O (stereo not shown)",
    "EXPERIMENTAL SYSTEM": "DNA-PK phosphorylation at serine 2056 (Homo sapiens (Human))",
    "REPORTED": "4.52 to 5.00"
  },
  {
    "COMPOUND": "COc1nccnc1C(O)c1ccc(F)c(-c2ncnc3cc(N4CCOCC4)cc(F)c23)c1 (stereo not shown) [Example 267]",
    "EXPERIMENTAL SYSTEM": "DNA-PK phosphorylation at serine 2056 (Homo sapiens (Human))",
    "REPORTED": "> 6.30"
  },
  {
    "COMPOUND": "NC(=O)C(c1ccc(F)c(-c2ncnc3cc(N4CCOCC4)ccc23)c1)c1nccn2ncnc12 (stereo not shown)",
    "EXPERIMENTAL SYSTEM": "DNA-PK phosphorylation at serine 2056 (Homo sapiens (Human))",
    "REPORTED": "4.52 to 5.00"
  },
  {
    "COMPOUND": "Nc1cncc(C(O)c2ccc(F)c(-c3ncnc4cc(N5CCOCC5)ccc34)c2)n1 (stereo not shown)",
    "EXPERIMENTAL SYSTEM": "DNA-PK phosphorylation at serine 2056 (Homo sapiens (Human))",
    "REPORTED": "5.00 to 5.30"
  },
  {
    "COMPOUND": "OC(c1cccnn1)c1cc(-c2ncnc3cc(N4CCOCC4)ccc23)ccc1Cl (stereo not shown) [Example 479]",
    "EXPERIMENTAL SYSTEM": "DNA-PK phosphorylation at serine 2056 (Homo sapiens (Human))",
    "REPORTED": "> 6.30"
  },
  {
    "COMPOUND": "Cn1cnc2ccnc(C(O)c3ccc(F)c(-c4ncnc5cc(N6CCOCC6)ccc45)c3)c21 (stereo not shown)",
    "EXPERIMENTAL SYSTEM": "DNA-PK phosphorylation at serine 2056 (Homo sapiens (Human))",
    "REPORTED": "> 6.30"
  }
]

Query block: Would you mind telling me what pIC50 value was observed for Cc1nccnc1C(O)c1ccc(F)c(-c2ncnc3cc(N4CCOCC4)sc23)c1 (stereo not shown) [Example 265] ?
Result block: > 6.30

Query block: Can you look up the measured pIC50 of Cn1cnc2c(C(O)c3cc(-c4ncnc5cc(N6CCOCC6)ccc45)ccc3F)ncnc21 (stereo not shown) for me?
Result block: 5.30 to 6.30

Query block: For the compound shown here, Cc1nccnc1Cc1ccc(F)c(-c2ncnc3cc(N4CCOCC4)ccc23)c1 , give the reported pIC50.
Result block: > 6.30

Query block: Consider the compound OC(c1cc(-c2ncnc3cc(N4CCOCC4)ccc23)ccc1F)c1nccn2ccnc12 (stereo not shown) and give its measured pIC50.
Result block: 5.30 to 6.30

Query block: Query (compound): O=c1[nH]nc(C(O)c2ccc(F)c(-c3ncnc4cc(N5CCOCC5)ccc34)c2)c2ccsc12 (stereo not shown) ; field requested: pIC50
Result block: 5.30 to 6.30

Query block: Suppose we examine the compound OC(c1cc(-c2ncnc3cc(N4CCOCC4)ccc23)ccc1F)c1ncnc2ccoc12 (stereo not shown) ; what pIC50 value has been reported?
Result block: 5.30 to 6.30

Query block: Would you kindly share the measured pIC50 for OC(c1ccc(F)c(-c2ncnc3cc(N4CCOCC4)ccc23)c1)c1ncnc2ccoc12 (stereo not shown) [Example 471] ?
Result block: > 6.30

Query block: Any idea what pIC50 was measured for NC(=O)C(c1cccnc1)c1ccc(F)c(-c2ncnc3cc(N4CCOCC4)ccc23)c1 (stereo not shown) ?
Result block: 4.52 to 5.00

Query block: // lookup pIC50 for Cc1cnc(C(C(N)=O)c2cc(-c3ncnc4cc(N5CCOCC5)ccc34)c(F)cc2Cl)c(C)n1 (stereo not shown)
Result block: 5.30 to 6.30

Query block: Requested field: pIC50. Item: Cn1ncc2c(C(O)c3cc(-c4ncnc5cc(N6CCOCC6)ccc45)c(F)cc3F)ncnc21 (stereo not shown)
Result block: 5.30 to 6.30
